Target: SLK (IPI00022827) (Homo sapiens, UniProt Q9H2G2)
Construct: endogenous in cells
Sequence (Q9H2G2 whole entry): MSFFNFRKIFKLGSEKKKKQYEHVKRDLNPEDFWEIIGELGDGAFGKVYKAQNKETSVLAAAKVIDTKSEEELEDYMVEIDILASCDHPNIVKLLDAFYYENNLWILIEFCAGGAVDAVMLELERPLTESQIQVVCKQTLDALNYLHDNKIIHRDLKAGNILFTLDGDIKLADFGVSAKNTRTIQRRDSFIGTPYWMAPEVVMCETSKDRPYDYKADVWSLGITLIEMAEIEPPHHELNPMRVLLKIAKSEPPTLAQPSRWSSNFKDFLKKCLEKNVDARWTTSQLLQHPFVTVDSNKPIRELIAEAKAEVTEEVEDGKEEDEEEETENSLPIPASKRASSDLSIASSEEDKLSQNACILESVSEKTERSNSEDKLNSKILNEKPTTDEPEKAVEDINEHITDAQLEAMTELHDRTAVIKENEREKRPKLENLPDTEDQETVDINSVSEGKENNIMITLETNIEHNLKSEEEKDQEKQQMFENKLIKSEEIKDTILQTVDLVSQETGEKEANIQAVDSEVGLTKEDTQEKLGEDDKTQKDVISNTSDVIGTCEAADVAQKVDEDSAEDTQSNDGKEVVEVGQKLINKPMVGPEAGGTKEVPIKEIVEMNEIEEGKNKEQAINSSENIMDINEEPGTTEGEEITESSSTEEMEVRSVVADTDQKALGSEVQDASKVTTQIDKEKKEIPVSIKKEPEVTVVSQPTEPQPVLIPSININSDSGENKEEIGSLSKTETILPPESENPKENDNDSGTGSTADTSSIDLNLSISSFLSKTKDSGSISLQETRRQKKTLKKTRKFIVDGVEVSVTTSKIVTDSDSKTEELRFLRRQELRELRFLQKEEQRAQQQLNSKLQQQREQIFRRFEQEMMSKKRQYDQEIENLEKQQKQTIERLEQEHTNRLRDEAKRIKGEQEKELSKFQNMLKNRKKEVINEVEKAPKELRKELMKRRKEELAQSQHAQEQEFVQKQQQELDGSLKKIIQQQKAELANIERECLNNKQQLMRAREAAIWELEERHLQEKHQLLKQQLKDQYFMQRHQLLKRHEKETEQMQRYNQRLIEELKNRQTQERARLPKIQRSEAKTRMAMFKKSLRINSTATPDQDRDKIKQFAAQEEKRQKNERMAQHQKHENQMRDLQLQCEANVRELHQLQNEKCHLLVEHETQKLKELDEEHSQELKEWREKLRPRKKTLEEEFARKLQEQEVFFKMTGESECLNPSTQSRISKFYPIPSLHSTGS
Experiment: binding to VI16742 beads (HeLa lysate, SILAC MS)
Settings: immobilized VI16742
MEASURE_NAME: pKi
// returns pKi (minus log10 of molar concentration), number only

Which pKi is listed for `CC(C)n1c(=O)ccc2cnc(Nc3ccc(OCCN)cc3)nc21` ?
3.66

* * *

Biological target: GAK (Homo sapiens, UniProt O14976)
Sequence (O14976 1-1311): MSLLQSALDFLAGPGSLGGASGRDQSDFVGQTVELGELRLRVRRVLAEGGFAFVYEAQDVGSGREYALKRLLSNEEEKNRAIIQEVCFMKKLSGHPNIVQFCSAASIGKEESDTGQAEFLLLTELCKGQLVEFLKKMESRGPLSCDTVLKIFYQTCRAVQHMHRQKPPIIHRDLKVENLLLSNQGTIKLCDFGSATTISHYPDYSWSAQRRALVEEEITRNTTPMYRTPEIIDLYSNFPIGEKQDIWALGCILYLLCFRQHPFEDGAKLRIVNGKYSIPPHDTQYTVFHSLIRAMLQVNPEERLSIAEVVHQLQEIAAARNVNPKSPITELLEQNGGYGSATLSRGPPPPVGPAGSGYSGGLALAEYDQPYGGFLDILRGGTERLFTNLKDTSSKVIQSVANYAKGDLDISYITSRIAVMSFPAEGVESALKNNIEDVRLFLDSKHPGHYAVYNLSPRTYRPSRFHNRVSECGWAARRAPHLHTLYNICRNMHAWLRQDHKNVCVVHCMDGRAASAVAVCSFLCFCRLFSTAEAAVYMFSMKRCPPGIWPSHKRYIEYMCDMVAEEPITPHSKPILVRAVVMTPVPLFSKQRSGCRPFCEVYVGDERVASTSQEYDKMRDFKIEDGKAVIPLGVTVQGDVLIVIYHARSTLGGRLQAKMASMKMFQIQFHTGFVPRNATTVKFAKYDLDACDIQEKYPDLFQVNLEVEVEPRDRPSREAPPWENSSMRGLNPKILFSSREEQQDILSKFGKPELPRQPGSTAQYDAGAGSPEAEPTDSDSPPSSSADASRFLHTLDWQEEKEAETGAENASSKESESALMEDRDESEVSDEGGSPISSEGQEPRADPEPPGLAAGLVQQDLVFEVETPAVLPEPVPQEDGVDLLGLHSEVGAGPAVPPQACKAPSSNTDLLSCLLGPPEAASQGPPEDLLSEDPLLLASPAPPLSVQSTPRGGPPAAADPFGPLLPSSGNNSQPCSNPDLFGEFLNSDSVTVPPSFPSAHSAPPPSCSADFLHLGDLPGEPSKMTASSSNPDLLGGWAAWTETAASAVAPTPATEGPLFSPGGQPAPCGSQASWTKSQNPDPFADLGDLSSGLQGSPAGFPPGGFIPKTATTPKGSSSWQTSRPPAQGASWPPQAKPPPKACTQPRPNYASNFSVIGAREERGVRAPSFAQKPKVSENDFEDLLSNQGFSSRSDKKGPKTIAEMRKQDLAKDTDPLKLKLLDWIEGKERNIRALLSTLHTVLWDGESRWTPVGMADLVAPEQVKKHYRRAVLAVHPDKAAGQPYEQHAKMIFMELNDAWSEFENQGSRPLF
Test: binding to immobilized V16742 (IVA1/IVA2, HeLa lysate, MS)
Conditions: EXPERIMENT 1, read-out: Kd
MEASURE_NAME: Kd (µM)
The reply should contain only the number, in µM.

Data request, read-out Kd, for CC(C)n1c(=O)ccc2cnc(Nc3ccc(OCCN)cc3)nc21 [compound 16742]
21.9

* * *

Target: EphB4 (Homo sapiens, UniProt P54760)
Experiment: binding to immobilized V16742 (IVA1/IVA2, HeLa lysate, MS)
Conditions: read-out: Kd Avg
MEASURE_NAME: Kd (µM)
Give a bare numeral; the unit µM is implied.

What value of Kd has been recorded for this entry: `CC(C)n1c(=O)ccc2cnc(Nc3ccc(OCCN)cc3)nc21`
43.6

* * *

Target: ACLY (IPI00021290) (Homo sapiens)
Construct: endogenous in cells
Sequence (P53396 1-1101): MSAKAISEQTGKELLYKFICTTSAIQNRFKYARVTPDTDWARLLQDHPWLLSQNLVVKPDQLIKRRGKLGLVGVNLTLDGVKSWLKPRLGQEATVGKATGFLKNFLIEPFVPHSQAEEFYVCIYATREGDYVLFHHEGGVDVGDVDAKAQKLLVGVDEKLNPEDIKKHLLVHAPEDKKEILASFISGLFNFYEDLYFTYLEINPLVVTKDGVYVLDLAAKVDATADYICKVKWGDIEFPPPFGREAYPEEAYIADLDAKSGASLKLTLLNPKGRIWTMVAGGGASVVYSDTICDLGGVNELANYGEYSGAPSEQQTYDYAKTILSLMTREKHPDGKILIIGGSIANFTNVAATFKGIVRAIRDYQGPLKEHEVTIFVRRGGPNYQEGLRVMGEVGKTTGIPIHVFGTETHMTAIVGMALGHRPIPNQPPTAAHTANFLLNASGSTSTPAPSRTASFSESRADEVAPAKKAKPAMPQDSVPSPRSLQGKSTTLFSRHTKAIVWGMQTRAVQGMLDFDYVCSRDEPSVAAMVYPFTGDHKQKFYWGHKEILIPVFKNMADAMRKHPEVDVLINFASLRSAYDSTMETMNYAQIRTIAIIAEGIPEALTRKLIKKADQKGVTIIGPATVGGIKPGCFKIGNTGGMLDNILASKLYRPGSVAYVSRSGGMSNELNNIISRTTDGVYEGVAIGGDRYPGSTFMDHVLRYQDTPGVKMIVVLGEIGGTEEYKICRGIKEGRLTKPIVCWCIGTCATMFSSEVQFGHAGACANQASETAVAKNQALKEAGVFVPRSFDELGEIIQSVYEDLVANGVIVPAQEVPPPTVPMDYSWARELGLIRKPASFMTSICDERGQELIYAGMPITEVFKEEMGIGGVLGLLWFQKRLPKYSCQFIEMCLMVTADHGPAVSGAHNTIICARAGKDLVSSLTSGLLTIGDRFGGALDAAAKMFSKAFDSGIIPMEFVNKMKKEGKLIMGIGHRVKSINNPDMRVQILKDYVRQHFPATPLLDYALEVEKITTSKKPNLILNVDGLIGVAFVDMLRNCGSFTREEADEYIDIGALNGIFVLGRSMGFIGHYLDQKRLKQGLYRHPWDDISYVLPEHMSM
Test: binding to VI16742 beads (HeLa lysate, SILAC MS)
Conditions: immobilized VI16742
MEASURE_NAME: Ki (µM)
Only the number, expressed in µM, is required.

What Ki value was documented for this compound, `CC(C)n1c(=O)ccc2cnc(Nc3ccc(OCCN)cc3)nc21` ?
162

* * *

Target: MAP3K5 (Homo sapiens, UniProt Q99683)
Construct: endogenous in cells; host or cells: HeLa S3
Assay: binding to immobilized V16742 (IVA1/IVA2, HeLa lysate, MS)
Conditions: Experiment 1, read-out: Kd
MEASURE_NAME: Kd

Can you look up Kd on MAP3K5 (Homo sapiens, UniProt Q99683) for CC(C)n1c(=O)ccc2cnc(Nc3ccc(OCCN)cc3)nc21 [V16742] ?
44.5 µM

* * *

Molecular target: PDE4D (IPI00002449) (Homo sapiens, UniProt Q08499)
Construct: endogenous in cells
Sequence (Q08499 whole entry): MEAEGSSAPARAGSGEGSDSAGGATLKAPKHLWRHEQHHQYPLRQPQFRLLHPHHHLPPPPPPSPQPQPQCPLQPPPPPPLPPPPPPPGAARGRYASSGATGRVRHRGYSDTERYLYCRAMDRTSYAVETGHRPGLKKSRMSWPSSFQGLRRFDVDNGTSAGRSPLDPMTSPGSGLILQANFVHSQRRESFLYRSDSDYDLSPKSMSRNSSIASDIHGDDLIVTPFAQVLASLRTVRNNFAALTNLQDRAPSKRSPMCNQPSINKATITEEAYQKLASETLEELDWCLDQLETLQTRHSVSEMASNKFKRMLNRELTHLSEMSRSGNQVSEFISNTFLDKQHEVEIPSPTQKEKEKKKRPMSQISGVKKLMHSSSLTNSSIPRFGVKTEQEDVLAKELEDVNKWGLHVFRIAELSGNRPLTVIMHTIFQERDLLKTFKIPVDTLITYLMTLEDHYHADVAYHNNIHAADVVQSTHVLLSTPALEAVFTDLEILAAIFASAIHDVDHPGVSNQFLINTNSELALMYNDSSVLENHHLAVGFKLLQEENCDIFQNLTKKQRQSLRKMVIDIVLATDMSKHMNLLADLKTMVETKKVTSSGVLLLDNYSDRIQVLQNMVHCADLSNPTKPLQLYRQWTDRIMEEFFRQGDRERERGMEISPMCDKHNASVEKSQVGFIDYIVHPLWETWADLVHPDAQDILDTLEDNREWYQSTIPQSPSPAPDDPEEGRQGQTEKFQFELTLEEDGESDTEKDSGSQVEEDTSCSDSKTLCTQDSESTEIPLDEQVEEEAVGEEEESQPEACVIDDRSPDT
Test: binding to VI16742 beads (HeLa lysate, SILAC MS)
Conditions: immobilized VI16742
Text: In an alternative implementation of the chemical proteomic approach according to the invention, the broadly-selective pyrido[2,3-d]pyrimidine-based kinase inhibitor VI16742 has been used for affinity capture (FIG. 10a). […] As shown by gene ontology analysis, the corresponding molecular functions were highly over-represented in proteins specifically retained by the inhibitor resin (FIG. 10b).
MEASURE_NAME: pKi
The read-out pKi is expressed as -log10 of concentration in moles per litre.

May I ask what pKi has been recorded for `CC(C)n1c(=O)ccc2cnc(Nc3ccc(OCCN)cc3)nc21` ?
3.99

* * *

Biological target: Sepiapterin reductase (Homo sapiens, UniProt P35270)
Sequence (P35270 whole entry): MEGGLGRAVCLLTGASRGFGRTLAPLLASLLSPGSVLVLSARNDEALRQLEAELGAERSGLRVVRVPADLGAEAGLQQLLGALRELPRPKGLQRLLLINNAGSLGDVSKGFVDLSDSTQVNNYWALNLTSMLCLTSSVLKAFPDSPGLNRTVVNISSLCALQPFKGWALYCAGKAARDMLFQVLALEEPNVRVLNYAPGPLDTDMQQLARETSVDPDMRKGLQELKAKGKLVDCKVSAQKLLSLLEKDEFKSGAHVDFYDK
Assay: binding to immobilized V16742 (IVA1/IVA2, HeLa lysate, MS)
MEASURE_NAME: pKd
In plain terms, pKd is the concentration in mol/L turned into minus its base-10 logarithm.

Would you kindly share the measured pKd for `CC(C)n1c(=O)ccc2cnc(Nc3ccc(OCCN)cc3)nc21` ?
4.23

* * *

Target: PKD3 (PRKD3) (Homo sapiens)
Construct: endogenous in cells
Sequence (O94806 whole entry): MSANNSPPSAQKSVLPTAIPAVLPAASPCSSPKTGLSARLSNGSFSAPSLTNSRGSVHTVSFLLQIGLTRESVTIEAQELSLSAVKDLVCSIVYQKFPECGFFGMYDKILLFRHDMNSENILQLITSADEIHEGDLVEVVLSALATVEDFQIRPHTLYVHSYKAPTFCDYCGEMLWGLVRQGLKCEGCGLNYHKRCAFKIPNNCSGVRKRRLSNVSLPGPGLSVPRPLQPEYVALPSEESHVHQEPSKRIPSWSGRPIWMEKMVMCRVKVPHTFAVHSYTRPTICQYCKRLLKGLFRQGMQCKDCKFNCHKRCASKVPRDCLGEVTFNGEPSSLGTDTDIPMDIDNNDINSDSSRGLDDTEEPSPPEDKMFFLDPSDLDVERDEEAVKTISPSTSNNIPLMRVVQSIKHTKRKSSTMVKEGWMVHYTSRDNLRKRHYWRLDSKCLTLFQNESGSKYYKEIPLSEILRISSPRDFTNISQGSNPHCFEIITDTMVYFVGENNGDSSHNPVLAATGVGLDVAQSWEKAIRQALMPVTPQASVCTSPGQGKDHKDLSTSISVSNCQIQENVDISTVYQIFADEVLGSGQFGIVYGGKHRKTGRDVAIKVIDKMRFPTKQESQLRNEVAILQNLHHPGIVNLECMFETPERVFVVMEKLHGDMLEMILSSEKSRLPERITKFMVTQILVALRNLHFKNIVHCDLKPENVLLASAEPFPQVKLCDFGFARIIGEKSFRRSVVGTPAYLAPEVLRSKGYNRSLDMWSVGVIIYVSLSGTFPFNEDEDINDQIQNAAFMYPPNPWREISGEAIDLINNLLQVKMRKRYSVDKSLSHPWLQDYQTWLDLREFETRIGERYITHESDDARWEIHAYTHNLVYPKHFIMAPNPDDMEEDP
Assay: binding to AX14596 beads (HeLa lysate, SILAC MS)
MEASURE_NAME: pKi
Keep it numeric: pKi is minus log10 of the concentration in mol/L.

Request: pKi, test system PKD3 (PRKD3) (Homo sapiens), entry `COc1cc2ncnc(Nc3ccc(F)c(Cl)c3)c2cc1OCCCN`
2.82

* * *

Target: UniProtKB P29317
Sequence (P29317 24-976): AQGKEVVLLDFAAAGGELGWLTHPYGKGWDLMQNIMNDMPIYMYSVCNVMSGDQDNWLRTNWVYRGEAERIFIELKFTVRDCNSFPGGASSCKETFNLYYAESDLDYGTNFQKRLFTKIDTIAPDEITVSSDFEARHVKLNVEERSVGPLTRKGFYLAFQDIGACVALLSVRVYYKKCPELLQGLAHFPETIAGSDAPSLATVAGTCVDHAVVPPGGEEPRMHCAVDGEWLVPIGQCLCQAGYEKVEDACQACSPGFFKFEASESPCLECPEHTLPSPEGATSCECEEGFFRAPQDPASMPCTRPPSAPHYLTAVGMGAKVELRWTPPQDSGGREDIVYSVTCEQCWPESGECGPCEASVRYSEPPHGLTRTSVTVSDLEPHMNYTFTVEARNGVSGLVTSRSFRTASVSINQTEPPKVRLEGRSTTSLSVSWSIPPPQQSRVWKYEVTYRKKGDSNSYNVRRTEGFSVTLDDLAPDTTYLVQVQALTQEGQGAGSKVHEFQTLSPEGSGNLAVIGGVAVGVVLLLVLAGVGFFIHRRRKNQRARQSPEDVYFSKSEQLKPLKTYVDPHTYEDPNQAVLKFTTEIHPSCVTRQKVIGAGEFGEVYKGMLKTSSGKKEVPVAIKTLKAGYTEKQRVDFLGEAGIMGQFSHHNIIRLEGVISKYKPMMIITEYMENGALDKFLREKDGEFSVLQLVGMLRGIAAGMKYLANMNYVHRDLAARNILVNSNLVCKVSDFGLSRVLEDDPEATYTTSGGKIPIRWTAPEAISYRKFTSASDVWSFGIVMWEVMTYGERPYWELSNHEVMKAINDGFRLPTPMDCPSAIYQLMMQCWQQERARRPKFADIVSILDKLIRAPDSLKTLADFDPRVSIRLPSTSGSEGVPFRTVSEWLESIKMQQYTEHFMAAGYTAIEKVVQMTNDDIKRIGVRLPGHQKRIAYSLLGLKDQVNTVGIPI
Assay: binding to immobilized V16742 (IVA1/IVA2, HeLa lysate, MS)
Conditions: Kd, EphA2; Experiment 1
MEASURE_NAME: Kd

State the recorded Kd for this entry: `CC(C)n1c(=O)ccc2cnc(Nc3ccc(OCCN)cc3)nc21`
45.3 µM
